Hello, the source for this data is patent US20240245796A1, in case you need it.

# system under test: T1, human FOLR1 protein, His Tag (ACRO FO1-H52H1) (human, UniProt P15328 25-233)
# T1 construct: Bought protein coated on ELISA plates; not shown: His tag
# T1 sequence (P15328 25-233 limits assumed): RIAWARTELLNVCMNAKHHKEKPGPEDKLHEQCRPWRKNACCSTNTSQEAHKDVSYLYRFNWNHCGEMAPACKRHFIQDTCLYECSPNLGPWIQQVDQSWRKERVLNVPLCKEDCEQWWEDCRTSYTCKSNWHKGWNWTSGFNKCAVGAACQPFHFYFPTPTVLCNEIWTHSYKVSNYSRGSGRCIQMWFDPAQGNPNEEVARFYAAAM
# assay details: ELISA, coated hFOLR1-His, supernatant 25x
measurement type: OD450 (OD450)
Supply the numeric figure in OD450, leaving out any unit text.

binder	unit label	reported measurement
F123 (antibody, V domains shown, Tested as full-length IgG with an IgG1 Fc from HEK293, as supernatant or purified; also called clone F123; anti-FOLR1 antibody F123) VH: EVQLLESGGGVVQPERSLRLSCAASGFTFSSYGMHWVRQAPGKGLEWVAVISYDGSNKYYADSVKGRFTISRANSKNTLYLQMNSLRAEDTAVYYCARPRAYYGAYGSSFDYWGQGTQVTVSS VL: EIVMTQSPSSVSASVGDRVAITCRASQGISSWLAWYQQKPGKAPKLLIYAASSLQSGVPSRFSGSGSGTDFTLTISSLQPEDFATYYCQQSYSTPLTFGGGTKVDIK	OD450	1.33

Q) Given F1 (antibody, V domains shown, also called clone F1; anti-FOLR1 antibody F1) VH: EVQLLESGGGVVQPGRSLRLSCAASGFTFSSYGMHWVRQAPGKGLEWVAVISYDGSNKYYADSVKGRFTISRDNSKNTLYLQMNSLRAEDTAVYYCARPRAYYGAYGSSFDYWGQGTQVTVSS VL: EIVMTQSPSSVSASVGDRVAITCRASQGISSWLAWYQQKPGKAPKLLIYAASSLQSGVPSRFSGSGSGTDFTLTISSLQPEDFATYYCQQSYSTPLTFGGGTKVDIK , state its recorded OD450.
A) 1.18
